Target: T1, MPDZ_10, O75970
T1 sequence (O75970 1624-1722, limits assumed, looked up): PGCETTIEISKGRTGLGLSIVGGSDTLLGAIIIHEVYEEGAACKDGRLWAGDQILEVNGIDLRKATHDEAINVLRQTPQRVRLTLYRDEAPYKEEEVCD
Experiment: holdup assay
Parameters: key: below the threshold = too weak to quantify, mostly under pKd 3.1 to 4
Conditions: plain residues with an end cap or a label only (N-terminal biotin on a linker: ado-ado)

| binder | pKd |
| --- | --- |
| DYSNLRETDI [ADRA1D, P25100] | below the threshold |
| IQISELETNV [SLC1A7, O00341] | below the threshold |
| VCMGDHWFDV [PRKN, O60260] | below the threshold |
